# Tested on: L1210
# procedure-text: Compound was evaluated in vitro for its inhibitory activity against L1210 leukemia cell line using Coulter counter assay
# Assay type: functional
# measurement-conditions: Mus musculus, read-out: ID50 (the source's name)
endpoint: IC50 (µM)
Answers are plain numbers, in µM.

[Q] Fill blank: measured IC50 of the molecule Fc1cc(F)c(F)c(NCCNc2c(F)c(F)cc(F)c2F)c1F is ____.
[A] 37
